All values here come from the supplement of paper PMC10702517.

experiment_description: chemical recovery from spiked human plasma; higher = better extraction
experimental_conditions: pooled human plasma; extraction method: SPE only (HLB 96-well), PES comparison experiment
Record t whenever chemical recovery is at 50% or higher; record f when lower.

compound	cat
CCc1cccc(C)c1N(C(=O)CS(=O)(=O)O)C(C)COC (stereo unspecified)	f
C[C@]12CC[C@H]3[C@@H](CCC4=CC(=O)CC[C@@]43C)[C@@H]1CC[C@@H]2O	t
CCCCCCCCCCCC(=O)N(CCO)CCO [Lauryl diethanolamide]	t
O=S(=O)(c1ccccc1)c1ccccc1	f
Nc1ccc(/N=N/c2ccccc2)cc1	f
c1ccc(-c2ccccc2-c2ccccc2)cc1	f
CC(C)(Oc1ccc(CCNC(=O)c2ccc(Cl)cc2)cc1)C(=O)O [Bezafibrate]	t
O=P(O)(Oc1ccccc1)Oc1ccccc1 [Diphenylphosphate]	f
CCNc1nc(NC(C)C)[nH]c(=O)n1 [2-Hydroxyatrazine]	f
O=S(=O)(O)c1cccc2c(O)cccc12	f
CCC1(c2ccccc2)C(=O)NCNC1=O	f
CCCOC(=O)c1ccc(O)cc1	t
CO/C=C(/C(=O)O)c1ccccc1Oc1cc(Oc2ccccc2C#N)ncn1	t
O=[N+]([O-])c1cc[n+]([O-])c2ccccc12 [4-Nitroquinoline-1-oxide]	f
C=CCOC(Cn1ccnc1)c1ccc(Cl)cc1Cl (stereo unspecified)	f
CC(C)C1(C)N=C(c2ncccc2C(=O)O)NC1=O (stereo unspecified)	t
O=C(/C=C/C=C/c1ccc2c(c1)OCO2)N1CCCCC1	t
CC(=O)c1cc2c(cc1C)C(C)(C)C(C)CC2(C)C (stereo unspecified) [Tonalide]	f
COP(=O)(OC)C(O)C(Cl)(Cl)Cl (stereo unspecified)	f
CCCCC(=O)O[C@]1(C(=O)CO)[C@@H](C)C[C@H]2[C@@H]3CCC4=CC(=O)C=C[C@]4(C)[C@@]3(F)[C@@H](O)C[C@@]21C [Betamethasone-17-valerate]	f
CN(Cc1nc2c(N)nc(N)nc2nc1O)c1ccc(C(=O)N[C@@H](CCC(=O)O)C(=O)O)cc1 [7-Hydroxymethotrexate]	f
c1ccc2cc3ccccc3cc2c1	f
CCNc1nc(Cl)nc(NC(C)(C)C)n1	f

* * *

# chemical recovery into PDMS annotations
experiment_description: chemical recovery into PDMS from spiked human plasma; higher = better extraction
experimental_conditions: pooled human plasma; extraction method: PES with PDMS; equilibration time (d): 3
metric_name: chemical recovery into PDMS (%)

molecule	value_units	test_value
O=P(OCCCl)(OCCCl)OCCCl [Tris(2-chloroethyl)phosphate]	%	39.8
CO/N=C(/C(=O)OC)c1ccccc1CO/N=C(\C)c1cccc(C(F)(F)F)c1	%	47.8
CC(C)(C)C(O)C(Oc1ccc(Cl)cc1)n1cncn1 (stereo not given)	%	43.5
CCCCc1oc2ccccc2c1C(=O)c1cc(I)c(OCCN(CC)CC)c(I)c1	%	0.131
CSc1nc(NC2CC2)nc(NC(C)(C)C)n1	%	19.3

* * *

# chemical recovery annotations
experiment_description: chemical recovery from spiked human plasma; higher = better extraction
experimental_conditions: pooled human plasma; extraction method: SPE only (HLB 96-well)

compound	chemical recovery
O=[N+]([O-])c1ccc(O)cc1	41.5%
CCC1=C(C)CN(C(=O)NCCc2ccc(S(=O)(=O)NC(=O)NC3CCC(C)CC3)cc2)C1=O (configuration not stated) [Glimepiride]	32%
O=C(O)COc1nc(Cl)c(Cl)cc1Cl	37%
CCCC1CC(C(=O)NC(C(C)Cl)C2OC(SC)C(O)C(O)C2O)N(C)C1 (configuration not stated)	37.9%
C=CCc1ccc(O)c(OC)c1	44.8%
NC(=O)Nc1ccc(Cl)c(Cl)c1	43.9%
c1ccc2c(c1)sc1ccccc12	16.2%
CC(C)(C#N)c1cc(Cn2cncn2)cc(C(C)(C)C#N)c1	44.4%
O=C(O)C(F)(F)C(F)(F)C(F)(F)C(F)(F)C(F)(F)F	35.5%
COc1cc2c(c(OC)c1OC)-c1ccc(OC)c(=O)cc1[C@@H](NC(C)=O)CC2	45%
c1ccc2c(c1)cc1ccc3cccc4ccc2c1c34	4.36%
CN(C)c1nc(=O)n(C2CCCCC2)c(=O)n1C	45.4%
Oc1ccc(Cl)cc1Cc1ccccc1	36.9%
CSC1=N[C@@](C)(c2ccccc2)C(=O)N1Nc1ccccc1	57.8%
Cc1cc(Cl)ccc1/N=C/N(C)C [Chlordimeform]	24.7%
Cc1cc(Cl)ccc1OCC(=O)O	43.1%
CCOP(=S)(OCC)SCSC(C)(C)C	14.7%
